Data origin, for the record: PubChem BioAssay (NCATS)

Experimental details: Quantitative High-Throughput drug screen in 47 multiple myeloma cell lines against the NCATS MIPE library collection: OCIMY1_PLB cell viability assay (AID 1918979); further: nearly all actives have a fitted effect of over 35% in size
Settings: OCI-MY1 myeloma viability, CellTiter-Glo ATP, 48 h; series mostly up to 45.8 µM
Results filed as inconclusive are left out. The source made the active and inactive calls. The call rests on the fitted dose curve; in most records, active means well fitted cell-killing curve with a large enough effect; inconclusive means small, poorly fitted or top-dose-only effect, or effect the other way; inactive means no such curve, though single readings can be large or run the other way.
Classes used: active, inactive

Compound: OC[C@H]1OC(O)C[C@@H](O)[C@H]1O (stereo not given in full)
Assigned class: inactive

Compound: C[C@@H](Oc1ccc2[nH]nc(C=Cc3cnn(CCO)c3)c2c1)c1c(Cl)cncc1Cl
Assigned class: active

Compound: COC(=O)[C@H](CCCN=C(N)N)NS(=O)(=O)c1ccc(C)cc1
Assigned class: inactive

Compound: C=CC1=C(C(=O)O)N2C(=O)[C@@H](NC(=O)C(=NO)c3csc(N)n3)[C@H]2SC1
Assigned class: inactive

Compound: O=c1ccn([C@@H]2O[C@H](CO)[C@H](O)[C@@H]2F)c(=O)[nH]1
Assigned class: inactive

Compound: C[C@H](NC(=O)C(C#N)=Cc1cccc(Br)n1)c1ccccc1
Assigned class: active

Compound: O=C(C=CC#Cc1cccc(NS(=O)(=O)c2ccccc2)c1)NO
Assigned class: active

Compound: CC1(C)[C@H](O[C@H]2O[C@H](C(=O)O)[C@@H](O)[C@H](O)[C@H]2O[C@@H]2O[C@H](C(=O)O)[C@@H](O)[C@H](O)[C@H]2O)CC[C@@]2(C)[C@H]1CC[C@]1(C)[C@H]2C(=O)C=C2[C@H]3C[C@@](C)(C(=O)O)CC[C@]3(C)CC[C@]21C
Assigned class: inactive

Compound: COc1cc(O)c2c(c1)C1OC1C[C@H](O)[C@H](O)C(=O)C=CC[C@H](C)OC2=O (stereo not given in full)
Assigned class: active

Compound: CN(CC(=O)N(Cc1ccc(C2CCCCC2)cc1)c1ccc(C(=O)O)c(O)c1)S(=O)(=O)c1c(F)c(F)c(F)c(F)c1F
Assigned class: active

* * *

System: Zika virus NS2B-NS3 protease
Experimental details: Primary screen GU AMC qHTS for Zika virus inhibitors (AID 1347154); further: nearly all actives have a fitted effect of over 70% in size
Settings: Zika NS2B-NS3 unlinked protease, AMC fluorogenic substrate; series mostly up to 54.1 µM
Inconclusive results are not listed. Activity calls are given as the source filed them. Calls follow the shape of the dose curve; as a rule, active = well fitted inhibition curve with a large enough effect; inconclusive = small, poorly fitted or top-dose-only effect; inactive = flat fitted curve, though single readings scatter.

Compound: COc1cc(CCc2cc(NC(=O)c3ccc(N4C[C@@H](C)N[C@@H](C)C4)cc3)n[nH]2)cc(OC)c1
Tgt: Zika virus NS2B-NS3 protease
outcome: inactive

Compound: Cn1cnc(=N)c2[nH]cnc21
Tgt: Zika virus NS2B-NS3 protease
outcome: inactive

Compound: OC[C@H]1OC(O)C[C@@H](O)[C@H]1O (stereo partly drawn)
Tgt: Zika virus NS2B-NS3 protease
outcome: inactive

Compound: O=C1NC(=O)[C@@H](c2cn3c4c(cccc24)CCC3)[C@H]1c1c[nH]c2ccccc12
Tgt: Zika virus NS2B-NS3 protease
outcome: inactive

Compound: CCS(=O)(=O)Nc1ccc2[nH]c(O)c(C(=Nc3ccc(CN4CCCCC4)cc3)c3ccccc3)c2c1
Tgt: Zika virus NS2B-NS3 protease
outcome: inactive

Compound: C[C@H]1O[C@H](O[C@H]2[C@H](O)[C@@H](O)[C@@H](O[C@H]3[C@H](O)[C@@H](O)C(O)O[C@H]3CO)O[C@H]2CO)[C@H](O)[C@@H](O)[C@H]1N[C@H]1C=C(CO)[C@@H](O)[C@H](O)[C@@H]1O (stereo partly drawn)
Tgt: Zika virus NS2B-NS3 protease
outcome: inactive

Compound: COc1cccc2c1C(=O)c1c(O)c3c(c(O)c1C2=O)C[C@@](O)(C(=O)CO)C[C@@H]3O[C@H]1C[C@H](N)[C@H](OC2CCCCO2)[C@H](C)O1 (stereo partly drawn)
Tgt: Zika virus NS2B-NS3 protease
outcome: inactive

Compound: COc1cc(OC)cc(-c2ccc3ncc4ccc(=O)n(-c5ccc(N6CCNCC6)c(C(F)(F)F)c5)c4c3c2)c1
Tgt: Zika virus NS2B-NS3 protease
outcome: inactive

Compound: CCCNS(=O)(=O)Nc1ncnc(OCCOc2ncc(Br)cn2)c1-c1ccc(Br)cc1
Tgt: Zika virus NS2B-NS3 protease
outcome: inactive

Compound: C[C@H]1C[C@H]2[C@@H]3CCC4=CC(=O)C=C[C@]4(C)[C@@H]3C(=O)C[C@]2(C)[C@@]1(O)C(=O)CO
Tgt: Zika virus NS2B-NS3 protease
outcome: inactive

Compound: CCCCCN=C(N)NN=Cc1c[nH]c2ccc(OC)cc12
Tgt: Zika virus NS2B-NS3 protease
outcome: inactive

Compound: COc1ccc2cc([S+]([O-])Cc3ncc(C)c(OC)c3C)nc2c1
Tgt: Zika virus NS2B-NS3 protease
outcome: inactive

Compound: C[C@H](CCC(=O)O)[C@H]1CCC2C3C[C@H](O)[C@@H]4C[C@H](O)CC[C@]4(C)C3CC[C@@]21C (stereo partly drawn)
Tgt: Zika virus NS2B-NS3 protease
outcome: inactive

Compound: N#Cc1c(NC(=O)c2cccc3ccccc23)sc2c1CCCC2
Tgt: Zika virus NS2B-NS3 protease
outcome: inactive

Compound: CC(C)n1cnc2c(NCCc3ccc(O)cc3)nc(-c3csc4ccccc34)nc21
Tgt: Zika virus NS2B-NS3 protease
outcome: inactive

Compound: CC(N[C@H]1CCCC[C@H]1NC(=O)c1ccc(Cl)cc1)c1cccc2ccccc12 (stereo partly drawn)
Tgt: Zika virus NS2B-NS3 protease
outcome: inactive

Compound: CN1CCCN(C(=O)c2cccc(-c3ccc(C=C4C(=O)Nc5ccc(Cl)cc54)o3)c2)CC1
Tgt: Zika virus NS2B-NS3 protease
outcome: inactive

Compound: O=C1CSC(=O)N1C(CCc1ccncc1)COc1ccc(-c2cccc([N+](=O)[O-])c2)cc1 (stereo not drawn)
Tgt: Zika virus NS2B-NS3 protease
outcome: inactive
